This listing pairs compounds with measured TGI.
# Tested on: M19-MEL melanoma
# test.method.notes: NCI tumour cell line growth inhibition, 48 h

* O=C(c1ccccc1)c1c(-c2ccccc2)sc2nc3ccccc3nc12 | > 100 µM
* COc1ccc(-c2cc(=O)c3ccccc3o2)cc1N | > 100 µM

Now examine the next entry.
For this compound ( C=C1C(=O)OC2C1CCC(C)C1C=CC(=O)C12C (stereo not drawn) ), measured TGI is 14.4 µM

====

# System: DLD-1 colon
# test.method.notes: NCI tumour cell line growth inhibition, 48 h
measured.quantity: TGI

Some compounds with known TGI results, for comparison:
- COc1ccc(C(=O)C(C(=O)CC(=O)Nc2cccc(C(F)(F)F)c2)c2ccc(OC)cc2)cc1 (configuration not stated): > 100 µM
- CC(C)OP(=O)(OC(C)C)c1nc(-c2ccccc2)n(-c2ccc([N+](=O)[O-])cc2)n1: > 100 µM
- CC(=O)OC[C@]1(C)CCCC2(C)C1CCC1C=C(C)[C@H]3CCC12C3 (some centres not stated): > 100 µM
- Cn1nc(-c2ccccc2)c(C(=O)/C=C/c2ccc(Cl)cc2)c(N2CCCCC2)c1=O: 7.08 µM

For this compound ( COc1cc2cc3c4cc(OC)c(OC)cc4cc[n+]3cc2cc1OC ), measured TGI is > 100 µM

For this compound ( C=C(C#N)C1OCC2OC(C)(C)OC21 (configuration not stated) ), measured TGI is 34.4 µM

For this compound ( O=C1Cc2c([nH]c3ccccc23)-c2ccccc2N1 ), measured TGI is > 100 µM

====

# System: MALME-3M melanoma
# test.method.notes: NCI tumour cell line growth inhibition, 48 h
This listing pairs compounds with measured TGI.

• C=CCN1C(=O)/C(=C\c2cc(C(C)(C)C)c(O)c(C(C)(C)C)c2)NC1=S = > 100 µM
• O=C(N/N=C/c1c(-c2ccccc2)no[n+]1[O-])N1CCOCC1 = > 100 µM

Now examine the next entry.
Lab entry: MALME-3M melanoma assay, compound CC1C/C(=C\c2ccc(OC(=O)C(C)(C)C)cc2)C(=O)/C(=C/c2ccc(OC(=O)C(C)(C)C)cc2)C1 (configuration not stated) , TGI = > 100 µM

====

# Tested on: HOP-62 NSCLC
# test.method.notes: NCI tumour cell line growth inhibition, 48 h
This listing pairs compounds with measured TGI.

Some compounds with known TGI results, for comparison:
* O=S(CC1(O)CCCCC1)c1ccccc1 (stereo unspecified) | > 100 µM
* CC(C)(C)CC(C)(C)c1cc2c(O)c(c1)Cc1cc(C(C)(C)CC(C)(C)C)cc(c1O)Cc1cc(C(C)(C)CC(C)(C)C)cc(c1O)Cc1cc(C(C)(C)CC(C)(C)C)cc(c1O)Cc1cc(C(C)(C)CC(C)(C)C)cc(c1O)C2 | > 100 µM
* N#CC1=C(N)Oc2c(ccc3ccccc23)C1c1ccccc1 (stereo unspecified) | 18.6 µM
* CN(C)CCNC(=O)c1cccc2nc3cc(Cl)ccc3nc12 | 5.61 µM
* O=C(O)c1ccc(Oc2nccc(-c3c(-c4ccc(F)cc4)ncn3C3CCNCC3)n2)cc1 | > 25 µM

For this compound ( O=[N+]([O-])c1ccc(N=Nc2c(O)ccc3ccccc23)c([N+](=O)[O-])c1 ), measured TGI is > 100 µM
